# method: PSAC antagonists in infected red cells, primary screen, cell-based, P. falciparum Indochina, OD700, 18 h (AID 1157)
# appliedConditions: P. falciparum Indochina infected erythrocytes, osmotic lysis OD700, 18 h; higher = more signal, called active from +8 up or from −8 down
Please mark Y if the recorded z-score is equal to or greater than 0.4, and N if it falls below.

{"compound": "CC(C)NC(=O)[C@@H]1c2ccccc2C(=O)N(Cc2ccccc2Cl)[C@H]1c1ccc(CO)cc1", "classification": "N"}
{"compound": "CCOC(=O)[C@H]1C[C@H]2O[C@@]23C[C@H]1C(=O)N1CCCC1[C@@H]3O[Si](C)(C)C(C)(C)C (some centres not stated)", "classification": "N"}
{"compound": "CCOC(=O)C1=CC[C@@H](c2ccccc2)N(S(=O)(=O)c2ccc(C)cc2)[C@H]1C(=O)OCC", "classification": "Y"}
{"compound": "COc1ccc(CCNC(=O)[C@@]2(Sc3ccc(C)cc3)CC(=O)N(Cc3ccccc3Cl)[C@@H]2c2ccc(CO)cc2I)cc1", "classification": "N"}
{"compound": "COCCOC(=O)N1C(=O)[C@@]2(c3cc(C#CCC(C(=O)OC)C(=O)OC)ccc31)[C@H](C(=O)N1CCCCCCC1)[C@H]1C(=O)O[C@H](c3ccccc3)[C@H](c3ccccc3)N1[C@@H]2c1ccc(OCCO)cc1", "classification": "Y"}
{"compound": "CN1C(=O)C2C=CC(C(O)c3ccccn3)N(Nc3ccccc3)C2C1=O (configuration not stated)", "classification": "Y"}
{"compound": "COC(=O)[C@@]1(Cc2ccc(OC)cc2)[C@H]2c3cc(C(=O)N4CCCC4)n(CCc4c[nH]c5cc(F)ccc45)c3C[C@H]2CN1C(=O)c1ccccc1", "classification": "Y"}
{"compound": "C[C@H]1NC(=O)[C@H](Cc2ccccc2)NC(=O)[C@@]23C(=O)N[C@@H](Cc4ccccc4)C2[C@H](C)[C@@]2(C)O[C@H]2C3/C=C/C/C=C\\CNC1=O (some centres not stated)", "classification": "Y"}
{"compound": "COc1ccc([Si](C)(C)[C@@H]2[C@@H](CCn3cc([C@H](O)c4ccccc4)nn3)O[C@]3(C(=O)N(Cc4ccc(N5C(=O)c6cccc7cccc5c67)cc4)c4ccccc43)[C@H]2C)cc1", "classification": "N"}
{"compound": "COC(=O)c1ccc(C(O)C2C=CC3C(=O)N(C)C(=O)C3N2NC(=O)OC(C)(C)C)o1 (configuration not stated)", "classification": "Y"}

Q. Hello, I need to know if Cc1ccc(S[C@]2(C(=O)NCc3ccccc3)CC(=O)N(Cc3ccccc3)[C@@H]2c2ccc(CO)cc2)cc1 has measured z-score not below 0.4. Thanks!
A. N

Q. hey, is z-score for this one >= 0.4? [N-]=[N+]=NCc1ccccc1[C@@H]1OC(c2ccc(OCCCO)cc2)=N[C@]1(Cc1ccccc1)C(=O)N1CCCCC1
A. Y

Q. Hello, I need to know if O=C1OCCC=C[C@H]2OC34C=CCN(Cc5ccccc5)C(=O)[C@H]3N(CCCCCO)C(=O)[C@@H]4C12 (some centres not stated) has measured z-score not below 0.4. Thanks!
A. Y

Q. Could you please find out whether C=CCC(OC(C)=O)[C@@H]1[C@@H](N(Cc2cc3ccccc3o2)C(=O)c2ccc(C)cc2)c2cc(OCCCO)ccc2N1C(=O)c1ccc2ccccc2c1 (some centres not stated) has z-score that meets 0.4 or exceeds it?
A. N

Q. hey, is z-score for this one >= 0.4? COCCOC(=O)N1C(=O)[C@@]2(c3cc(C#CCCO)ccc31)[C@H](C(=O)NC[C@H](O)c1ccccc1)[C@H]1C(=O)O[C@H](c3ccccc3)[C@H](c3ccccc3)N1[C@@H]2c1ccc(O)cc1
A. Y

Q. Does COCCOC(=O)N1C(=O)[C@@]2(c3cc(C#CCC(C(=O)OC)C(=O)OC)ccc31)[C@H](C(=O)N1CCN(c3ncccn3)CC1)[C@H]1C(=O)O[C@H](c3ccccc3)[C@H](c3ccccc3)N1[C@@H]2c1ccc(OCCO)cc1 have a reported z-score of at least 0.4?
A. Y

Q. hey, is z-score for this one >= 0.4? O=C1O[C@H](c2ccccc2)[C@H](c2ccccc2)N2[C@H]1[C@@H](C(=O)Nc1nc3ccccc3s1)[C@]1(C(=O)Nc3ccccc31)[C@H]2c1ccc(O)cc1
A. Y

Q. Please indicate if the recorded z-score for CCCCCN1CC=CC23O[C@@H]4/C=C\CCCOC(=O)C4[C@H]2C(=O)N(CCCCCCO)[C@@H]3C1=O (some centres not stated) meets or exceeds 0.4.
A. N

Q. Threshold query (z-score >= 0.4) on CCCC[C@H]1OB(O)C[C@H]2C1=C(C)C[C@H]1C(=O)N(Cc3ccccc3)C(=O)[C@H]12
A. N
